Biological target: recombinant human His-ATG7 enzyme (Homo sapiens (Human))
Sequence (O95352 whole entry): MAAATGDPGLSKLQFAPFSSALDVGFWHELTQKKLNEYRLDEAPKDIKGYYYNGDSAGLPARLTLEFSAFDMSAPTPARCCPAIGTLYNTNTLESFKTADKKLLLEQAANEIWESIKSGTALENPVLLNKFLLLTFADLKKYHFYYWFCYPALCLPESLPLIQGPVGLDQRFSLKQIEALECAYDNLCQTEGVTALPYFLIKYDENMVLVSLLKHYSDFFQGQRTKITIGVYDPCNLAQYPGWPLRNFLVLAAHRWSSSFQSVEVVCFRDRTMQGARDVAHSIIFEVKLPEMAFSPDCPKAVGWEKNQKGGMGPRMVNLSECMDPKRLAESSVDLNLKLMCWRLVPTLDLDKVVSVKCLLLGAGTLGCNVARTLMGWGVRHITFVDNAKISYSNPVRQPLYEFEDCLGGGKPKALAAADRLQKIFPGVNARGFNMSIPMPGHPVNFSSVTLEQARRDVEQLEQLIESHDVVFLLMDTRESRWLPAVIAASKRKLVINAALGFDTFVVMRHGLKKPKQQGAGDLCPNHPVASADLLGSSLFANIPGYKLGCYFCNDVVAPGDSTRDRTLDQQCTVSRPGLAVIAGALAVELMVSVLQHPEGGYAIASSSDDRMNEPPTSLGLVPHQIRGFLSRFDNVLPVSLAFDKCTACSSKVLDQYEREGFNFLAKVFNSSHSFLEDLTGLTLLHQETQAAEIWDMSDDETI
Assay: ATG7 Enzyme Assay (HTRF/FRET, ATG3-GST and Flag-Gabarap)
Type: biochemical
Conditions: Concentration 0.123 μM; read-out: Percent Inhibition
readout type: inhibition at 0.123 µM (%)

>  <smiles entry>
NC(=S)c1nn([C@@H]2O[C@H](COS(N)(=O)=O)[C@@H](O)[C@H]2O)c2ncnc(N)c12

>  <tested on>
recombinant human His-ATG7 enzyme (Homo sapiens (Human))

>  <experimental value>
59

$$$$
>  <smiles entry>
Cc1cccc(Sc2nn([C@@H]3O[C@H](COS(N)(=O)=O)[C@@H](O)[C@@H]3F)c3ncnc(N)c23)c1

>  <tested on>
recombinant human His-ATG7 enzyme (Homo sapiens (Human))

>  <experimental value>
76

$$$$
>  <smiles entry>
Nc1ncnc2c1c(SCc1ccccn1)nn2[C@@H]1O[C@H](COS(N)(=O)=O)[C@@H](O)[C@H]1O

>  <tested on>
recombinant human His-ATG7 enzyme (Homo sapiens (Human))

>  <experimental value>
75

$$$$
>  <smiles entry>
Nc1ncnc2c1c(CCc1ccccc1)nn2[C@@H]1O[C@H](COS(N)(=O)=O)[C@@H](O)[C@H]1O

>  <tested on>
recombinant human His-ATG7 enzyme (Homo sapiens (Human))

>  <experimental value>
20

$$$$

====

Biological target: recombinant human His-ATG7 enzyme (Homo sapiens (Human))
Assay: ATG7 Enzyme Assay (HTRF/FRET, ATG3-GST and Flag-Gabarap)
pIC50: −log10 of the molar value.
readout type: pIC50

>  <molecule>
COc1cccc(Sc2nn([C@@H]3O[C@H](COS(N)(=O)=O)[C@@H](O)[C@@H]3F)c3ncnc(N)c23)n1 [Compound I-107]

>  <experimental value>
7.00 to 7.30

$$$$
>  <molecule>
Nc1ncnc2c1c(Sc1ccc3c(c1)OCC3)nn2[C@H]1C[C@H](O)[C@@H](COS(N)(=O)=O)O1 [Compound I-168]

>  <experimental value>
7.30 to 7.70

$$$$
>  <molecule>
CSc1nn([C@@H]2O[C@H](COS(N)(=O)=O)[C@@H](O)[C@H]2O)c2ncnc(N)c12 [Compound I-42]

>  <experimental value>
> 7.70

$$$$
>  <molecule>
Nc1ncnc2c1c(-c1ccccc1)nn2[C@@H]1O[C@H](COS(N)(=O)=O)[C@@H](O)[C@H]1O [Compound I-49]

>  <experimental value>
< 6.30

$$$$
>  <molecule>
Nc1ncnc2c1c(Sc1cccc(Cl)c1)nn2[C@H]1C[C@H](O)[C@@H](COS(N)(=O)=O)O1 [Compound I-179]

>  <experimental value>
6.30 to 7.00

$$$$
>  <molecule>
Nc1ncnc2c1c(Sc1ccc(Cl)cc1)nn2[C@@H]1O[C@H](COS(N)(=O)=O)[C@@H](O)[C@@H]1F [Compound I-133]

>  <experimental value>
7.30 to 7.70

$$$$
>  <molecule>
COc1ccc(Sc2nn([C@H]3C[C@H](O)[C@@H](COS(N)(=O)=O)O3)c3ncnc(N)c23)cc1OC [Compound I-207]

>  <experimental value>
7.00 to 7.30

$$$$
>  <molecule>
C=Cc1nn([C@@H]2O[C@H](COS(N)(=O)=O)[C@@H](O)[C@H]2O)c2ncnc(N)c12 [Compound I-18]

>  <experimental value>
7.00 to 7.30

$$$$
>  <molecule>
Cn1ccnc1CSc1nn([C@@H]2O[C@H](COS(N)(=O)=O)[C@@H](O)[C@@H]2F)c2ncnc(N)c12 [Compound I-112]

>  <experimental value>
6.30 to 7.00

$$$$
>  <molecule>
Nc1ncnc2c1c(SC1CCCCC1)nn2[C@@H]1O[C@H](COS(N)(=O)=O)[C@@H](O)[C@@H]1F [Compound I-122]

>  <experimental value>
7.30 to 7.70

$$$$
>  <molecule>
Nc1ncnc2c1c(Sc1ccc(C(F)(F)F)cc1)nn2[C@@H]1O[C@H](COS(N)(=O)=O)[C@@H](O)[C@@H]1F [Compound I-132]

>  <experimental value>
7.00 to 7.30

$$$$
>  <molecule>
Nc1ncnc2c1c(Sc1cc(C(F)(F)F)ccn1)nn2[C@@H]1O[C@H](COS(N)(=O)=O)[C@@H](O)[C@@H]1F [Compound I-117]

>  <experimental value>
7.30 to 7.70

$$$$
>  <molecule>
Nc1ncnc2c1c(SCC1CC1(F)F)nn2[C@@H]1O[C@H](COS(N)(=O)=O)[C@@H](O)[C@@H]1F (mixture of isomers) [Compound I-131]

>  <experimental value>
7.30 to 7.70

$$$$
>  <molecule>
N#Cc1cccc(Sc2nn([C@@H]3O[C@H](COS(N)(=O)=O)[C@@H](O)[C@@H]3F)c3ncnc(N)c23)c1 [Compound I-153]

>  <experimental value>
7.00 to 7.30

$$$$

Sourced from patent US10865208B2
